tested on: Human papillomavirus type 1a E7 protein (residues 1-88); assay: HPV1a E7 small-molecule binders, primary screen, biochemical, small-molecule microarray, residues 1-88, 635 nm (AID 1129); conditions: small-molecule microarray binding, fluorescence 635 nm; higher = more signal
Catalogue of compounds with associated composite z-score
// return just the number, without any unit appended

Example entries begin here.
CCOC(=O)CCN1C(=O)[C@H]2[C@H]3[C@H](O)[C@H](O)CC(=NOC[C@@H](O)COCc4ccco4)[C@@H]3CC[C@H]2C1=O :: -0.0069
C/C=C\[C@@H](NCc1ccccc1Br)[C@@H](O)Cc1ccccc1 :: -0.469
CC1(C)OCC(C(O)C2=CCCCC2=O)CO1 (centres undefined) :: 0.279

Let us examine a further case.
Req: Tell me the measured composite z-score of COC(=O)[C@H]1COC(c2ccc(OCCCO)cc2)=N1 , please.
Resp: -0.877
